Tested on: A549 cells
ASSAY_COMMENT: Cell apoptosis assay, Annexin V-FITC/PI dual staining, flow cytometry
Type: cell-based
REPORTED_CONDITIONS: A549, 2 μM, 48 h; lower right quadrant in Figure 3
I'd be grateful if you could share measured Percentage of Cell Apoptosis (%) Early Apoptosis for these entries.
One number for each entry, in %.

| LINE_NOTATION | TESTED_ON | ASSAY_RESULT |
| --- | --- | --- |
| Cc1ccccc1Cn1c2ccccc2c2cc(C(=O)OCCCCCOC(=O)c3cc4c5ccccc5n(Cc5ccccc5C)c4cn3)ncc21 | A549 cells | 6.85 |

Parameters: items (list). Returns: Percentage of Cell Apoptosis (%) Early Apoptosis for each item.
1. COC(=O)c1cc2c3ccccc3n(Cc3ccccc3F)c2cn1
2. COC(=O)c1cc2c3ccccc3n(Cc3ccccc3C)c2cn1
3. O=C(OCCCCCOC(=O)c1cc2c3ccccc3n(Cc3ccccc3F)c2cn1)c1cc2c3ccccc3n(Cc3ccccc3F)c2cn1

7.27
3.18
12.14

Every entry's value here was drawn from paper PMC6214108.
